Origin of measurements: patent US20230286973A1

So I've got a bunch of compounds here, and I need their Liver Microsome Stability (Multiple Species): Mouse - % Remaining after 30 min w/NADPH values.
assay: Liver Microsome Stability Assay (mouse); details: mouse liver microsomes, with NADPH, 1.0 uM compound
Answers are plain numbers, in %.

# Compound, Result Value
records = [
    ("C[C@H](N)c1ccc(N2CCC[C@@H]2c2csc(NC(=O)c3cccn3Cc3ccncc3)n2)cc1 [Compound A71]", 95.6),
    ("O=C(Nc1nc([C@H]2CCCN2c2ccc(O[C@@H]3CCOC3)cc2)cs1)c1cccn1Cc1ccncc1 [Compound A3]", 9),
    ("O=C(Nc1nc([C@@H]2CCN(c3ccccn3)C2)cs1)c1cccn1Cc1ccncc1 [Compound E43]", 0.5),
]

We now examine a further compound.
# input Could you please provide reported Liver Microsome Stability (Multiple Species): Mouse - % Remaining after 30 min w/NADPH for COc1ccc(O[C@@H]2CC[C@H](c3csc(NC(=O)c4cccn4Cc4ccncc4)n3)C2)nc1 [Compound E42] ? Thanks!
# output 0.18

---

assay: Liver Microsome Stability Assay (human); details: human liver microsomes, with NADPH, 1.0 uM compound
// class assignment uses Liver Microsome Stability (Multiple Species): Human - % Remaining after 30 min w/NADPH with these ranges: bucket 1 = under 1%, bucket 2 = from 1% up to 20%, bucket 3 = 20% and over

# Molecule, Category
rows = [
    ("O=C(Nc1nc([C@H]2CCCN2c2ccccc2)cs1)c1cccn1Cc1ccccc1 [Compound C5]", "bucket 3"),
    ("O=C(Nc1nc([C@H]2CCCN2c2ccc(OC3CCN(C(=O)CF)CC3)cc2)cs1)c1cccn1Cc1ccnc(F)c1 [Compound A90]", "bucket 3"),
    ("CC(C)c1cc(/C=C/c2csc(NC(=O)c3cccn3Cc3ccnc(F)c3)n2)no1 [Compound B90]", "bucket 1"),
    ("CC1CCCn2cnc(/C=C/c3csc(NC(=O)c4cccn4Cc4ccnc(F)c4)n3)c21 (stereo not drawn) [Compound B102]", "bucket 1"),
    ("CC(C)n1cc(/C=C/c2csc(NC(=O)c3cccn3Cc3ccnc(F)c3)n2)nc1CO [Compound B103]", "bucket 2"),
    ("O=C(Nc1nc(/C=C/c2cn(C3CCCCC3)cn2)cs1)c1cccn1CC1CCOCC1 [Compound D5]", "bucket 1"),
    ("CC(=O)N[C@@H](C)c1ccc(N2CCC[C@@H]2c2csc(NC(=O)c3cccn3Cc3ccncc3)n2)cc1 [Compound A73]", "bucket 1"),
    ("O=C(O)CCCCn1cccc1C(=O)Nc1nc([C@H]2CCCN2c2ccccc2)cs1 [Compound C11]", "bucket 3"),
    ("O=C(Nc1nc([C@H]2CCCN2c2ccccc2)cs1)c1cccn1-c1csc2cnccc12 [Compound C115]", "bucket 2"),
    ("CC(=O)N[C@H](C)c1ccc(N2CCC[C@@H]2c2csc(NC(=O)c3cccn3Cc3ccnc(F)c3)n2)cc1 [Compound A70]", "bucket 2"),
]

# input Into which category would you place O=C(Nc1nc([C@H]2CCCN2c2ccccc2)cs1)c1cccn1Cc1ccc(=O)[nH]c1 [Compound C10] ?
# output bucket 3

# input Just checking, what class would you give C#CCCn1cccc1C(=O)Nc1nc([C@H]2CCCN2c2ccccc2)cs1 [Compound C62] here?
# output bucket 3

# input Could you tell me which band CN1CCOC(/C=C/c2csc(NC(=O)c3cccn3Cc3ccncc3)n2)C1 (stereo not drawn) [Compound B6] belongs to?
# output bucket 2

# input Just checking, what class would you give O=C(Nc1nc([C@H]2CCCN2c2ccc(OC3CN(C(=O)CO)C3)cc2)cs1)c1cccn1Cc1ccnc(F)c1 [Compound A110] here?
# output bucket 2

# input Please report the category associated with CN1c2ccccc2CCC1/C=C/c1csc(NC(=O)c2cccn2Cc2ccncc2)n1 (stereo not drawn) [Compound B8] , nothing else.
# output bucket 1

# input For the record Cc1ccc(S(=O)(=O)N2CCC[C@@H]2c2csc(NC(=O)c3cccn3Cc3ccncc3)n2)cc1 [Compound E14] , report the class its Liver Microsome Stability (Multiple Species): Human - % Remaining after 30 min w/NADPH corresponds to.
# output bucket 1

# input State the class of the molecule shown: NCCOc1ccc(N2CCC[C@@H]2c2csc(NC(=O)c3cccn3Cc3ccnc(F)c3)n2)cc1 [Compound A101]
# output bucket 2

# input For O=C(Nc1nc([C@H]2CCCN2c2ccc(C(F)(F)F)cc2)cs1)c1cccn1CC1CCOCC1 [Compound C91] , which Liver Microsome Stability (Multiple Species): Human - % Remaining after 30 min w/NADPH bin applies?
# output bucket 3

# input State the class of the molecule shown: O=C(Nc1nc([C@H]2CCCN2c2ccc(OC3CCNCC3F)cc2)cs1)c1cccn1Cc1ccnc(F)c1 (stereo partly drawn) [Compound A107]
# output bucket 3

# input Please report the category associated with CC(CC(N)=O)n1cnc(/C=C/c2csc(NC(=O)c3cccn3Cc3ccnc(F)c3)n2)c1 (stereo not drawn) [Compound B111] , nothing else.
# output bucket 2

# input Classify this molecule: CN(C)CCOc1ccc(N2CCC[C@@H]2c2csc(NC(=O)c3cccn3Cc3ccnc(F)c3)n2)cc1 [Compound A104]
# output bucket 3
